# assay.system: Tyrosine-protein phosphatase non-receptor type 1 (Homo sapiens) (UniProt P18031)
# Sequence (whole entry): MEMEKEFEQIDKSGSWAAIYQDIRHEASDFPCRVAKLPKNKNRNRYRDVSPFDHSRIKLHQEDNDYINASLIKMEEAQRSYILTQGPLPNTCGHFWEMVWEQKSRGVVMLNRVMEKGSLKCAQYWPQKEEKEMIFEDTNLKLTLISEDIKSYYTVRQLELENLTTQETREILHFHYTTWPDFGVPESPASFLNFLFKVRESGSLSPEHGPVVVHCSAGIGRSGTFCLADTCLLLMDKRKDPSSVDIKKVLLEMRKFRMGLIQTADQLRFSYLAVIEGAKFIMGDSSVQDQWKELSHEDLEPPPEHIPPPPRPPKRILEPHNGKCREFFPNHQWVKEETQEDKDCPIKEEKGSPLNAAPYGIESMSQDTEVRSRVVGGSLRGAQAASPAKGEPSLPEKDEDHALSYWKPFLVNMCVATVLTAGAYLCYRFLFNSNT
# experimental.protocol: Inhibition of recombinant human PTP1B assessed as inhibition of hydrolysis of pNPP at 100 uM by spectrophotometry
reported.metric: inhibition

[ask] Any idea what its inhibition is? The compound is COc1ccc(C(=O)Nc2ccc(C(=O)Nc3ccc(S(=O)(=O)Nc4nccs4)cc3)cc2)cc1
[reply] 81.9%

[ask] Endpoint output: inhibition of O=C(Nc1ccc(C(=O)Nc2ccc(S(=O)(=O)Nc3nccs3)cc2)cc1)c1ccc(F)cc1 . Value?
[reply] 53.1%
